Recorded T/C for the following compounds
Tested on: BDF1 mice, P388 leukemia ip, median survival T/C
assay-method-text: NCI In Vivo Anticancer Drug Screen. Data for tumor model P388 Leukemia (intraperitoneal) in B6D2F1 (BDF1) mice
measurement-conditions: endpoint: median survival time; dose: 400.0 mg/kg/injection; schedule: Q04DX003 (ip); vehicle: saline with Tween-80; higher = longer survival
Procedure: The antitumor activity of compounds was measured in mice bearing transplantable tumors. Survival or tumor size were measured and the results are expressed as the measurement made in the treated group (T) divided by the measurement made in the vehicle treated control group (C). The tumor model used in this assay is P388 Leukemia (intraperitoneal) in B6D2F1 (BDF1) mice
Toxic doses and inconclusive results are not listed.

- compound: "C(=N\\Nc1nnn(Cc2ccccc2)n1)/c1ccccc1"
  reading: "95 % of control"
- compound: "CCCNC(=O)Nc1cccc(Cl)c1C"
  reading: "100 % of control"
- compound: "CCOC(=O)C(C)(C(=O)OCC)c1ccccc1"
  reading: "115 % of control"
- compound: "COc1cc(/C=N/NC(N)=S)cc(OC)c1OC"
  reading: "104 % of control"
- compound: "C[C@]12CC[C@@H]3c4ccccc4CC[C@H]3[C@@H]1CC[C@@H]2O"
  reading: "100 % of control"
- compound: "NC(=O)C(CC(=O)OCc1ccccc1)NC(=O)OCc1ccccc1 (configuration not stated)"
  reading: "104 % of control"

Recorded T/C for `CC(=O)O[C@H]1CC[C@H]2[C@@H]3CCC4=CC(=O)CC[C@]4(C)[C@H]3[C@H](OC(C)=O)C[C@]12C` , please?
109 % of control

----------
Recorded T/C for the following compounds
Tested on: BDF1 mice, P388 leukemia ip, median survival T/C
assay-method-text: NCI In Vivo Anticancer Drug Screen. Data for tumor model P388 Leukemia (intraperitoneal) in B6D2F1 (BDF1) mice
measurement-conditions: endpoint: median survival time; dose: 200.0 mg/kg/injection; schedule: Q01DX009 (ip); vehicle: water; higher = longer survival
Toxic doses and inconclusive results are not listed.

Below: 3 compounds and their reported T/C.
- compound: "CNC(=O)c1nc(C)c(C)[nH]c1=O"
  parameter-measured: "T/C"
  reading: "90 % of control"
- compound: "CC1(C)CCC(=O)O1"
  parameter-measured: "T/C"
  reading: "103 % of control"
- compound: "N=C1N=C(C(F)(F)F)N=C1c1[nH]c(C(F)(F)F)nc1N"
  parameter-measured: "T/C"
  reading: "97 % of control"

Recorded T/C for `COc1cccc2c(=O)cc(C)[nH]c12` , please?
91 % of control

Recorded T/C for COC1=C(O)C(C(O)CO)OC1=O (stereo not given) , please?
103 % of control

Recorded T/C for `Cc1ccc(/C=C2\NC(=O)NC2=O)cc1` , please?
98 % of control

----------
Tested on: BDF1 mice, P388 leukemia ip, median survival T/C
assay-method-text: NCI In Vivo Anticancer Drug Screen. Data for tumor model P388 Leukemia (intraperitoneal) in B6D2F1 (BDF1) mice
measurement-conditions: endpoint: median survival time; dose: 200.0 mg/kg/injection; schedule: Q04DX002 (ip); vehicle: saline with Tween-80; higher = longer survival
Inconclusive results and toxic doses are left out.
parameter-measured: T/C

Below: 4 compounds and their reported T/C.
- compound: "O=C(Nc1ccccc1)c1c(-c2ccccc2)oc2ccccc2c1=O"
  system-under-test: "BDF1 mice, P388 leukemia ip, median survival T/C"
  T/C: "100 % of control"
- compound: "CSc1nnc(/C=C/c2ccc3c(c2)OCO3)c(=O)n1N"
  system-under-test: "BDF1 mice, P388 leukemia ip, median survival T/C"
  T/C: "106 % of control"
- compound: "Nc1cc(/C=C/c2ccc([N+](=O)[O-])cc2)nc2ccccc12"
  system-under-test: "BDF1 mice, P388 leukemia ip, median survival T/C"
  T/C: "88 % of control"
- compound: "CC(CCCc1ccccc1)(C(=O)O)C(=O)O"
  system-under-test: "BDF1 mice, P388 leukemia ip, median survival T/C"
  T/C: "98 % of control"

// next entry
Query T/C on BDF1 mice, P388 leukemia ip, median survival T/C for NC(Cc1ccccc1Cl)c1nn[nH]n1 (stereo unspecified)
121 % of control
